Target: T1, Germicidin synthase (Gcs), wild type (Streptomyces coelicolor, UniProt Q9K464 1-389)
T1 sequence (looked up): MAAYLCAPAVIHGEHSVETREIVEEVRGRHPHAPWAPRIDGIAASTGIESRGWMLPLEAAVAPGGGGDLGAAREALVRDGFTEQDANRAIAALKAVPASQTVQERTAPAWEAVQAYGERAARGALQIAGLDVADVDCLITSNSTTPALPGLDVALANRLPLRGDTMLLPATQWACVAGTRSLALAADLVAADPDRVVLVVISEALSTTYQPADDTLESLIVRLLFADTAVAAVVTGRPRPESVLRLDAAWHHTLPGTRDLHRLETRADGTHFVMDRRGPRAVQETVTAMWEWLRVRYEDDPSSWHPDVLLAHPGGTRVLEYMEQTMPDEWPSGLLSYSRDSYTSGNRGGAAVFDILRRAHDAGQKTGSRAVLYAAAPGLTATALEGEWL
Test: BLI
Value type: Kd (nM)
Give just the numeric value; nM need not be written.

Would you kindly share the measured Kd for Acyl carrier protein AcpP (Sco2389), biotinylated (natural protein, Streptomyces coelicolor, UniProt P72393 1-82, looked up, biotin (EZ-Link NHS-LC-LC-biotin, 5:1 molar ratio of biotin to protein)) MAATQEEIVAGLAEIVNEIAGIPVEDVKLDKSFTDDLDVDSLSMVEVVVAAEERFDVKIPDDDVKNLKTVGDATKYILDHQA ?
225
